Biological target: human nerve growth factor (beta-NGF) (human, UniProt P01138 122-241)
Sequence (P01138 122-241): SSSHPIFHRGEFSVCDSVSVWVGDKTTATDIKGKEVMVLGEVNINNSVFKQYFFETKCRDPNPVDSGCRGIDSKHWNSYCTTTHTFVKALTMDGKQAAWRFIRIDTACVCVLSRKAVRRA
Experiment: cell-based or functional assay
OBSERVED_PROPERTY: IC50, FLIPR calcium mobilisation (nM)
Give a bare numeral; the unit nM is implied.

Worked cases, IC50, FLIPR calcium mobilisation given:
BINDER | IC50, FLIPR calcium mobilisation, nM
1146D7 human IgG4 (antibody, V domains shown) VH: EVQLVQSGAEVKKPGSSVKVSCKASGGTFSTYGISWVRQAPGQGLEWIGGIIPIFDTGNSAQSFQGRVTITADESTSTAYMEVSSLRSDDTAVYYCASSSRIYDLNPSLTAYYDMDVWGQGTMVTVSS VL: QAVLTQPSSVSTPPGQEVTISCSGSSTNIGNNYVSWYQQLPGTAPKLLIYDNNKRPSGIPDRFSGSKSGTSATLGITGLQTGDEADYYCGTWDSSLSAWVFGGGTKLTVL | 0.38
1127D9 human IgG4 (antibody, V domains shown) VH: EVQLVQSGAEVKKPGSSVKVSCKASGGTFSTYGISWVRQAPGQGLEWIGGIIPIFDTGNSAQSFQGRVTITADESTSTAYMEVSSLRSDDTAVYYCASSSRIYDYHTIAYYDMDVWGQGTMVTVSS VL: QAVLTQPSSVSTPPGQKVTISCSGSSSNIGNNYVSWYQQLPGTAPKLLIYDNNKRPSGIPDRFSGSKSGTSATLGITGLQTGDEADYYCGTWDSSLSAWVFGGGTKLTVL | 0.4
1218H5 human IgG4 (antibody, V domains shown) VH: EVQLVQSGAVVKKPGSSVKVSCKASGGTFSTYGISWVRQAPGQGLEWIGGIIPIFDTGSSAQSFQGRVTITADESTSTAYMEVSSLRSDDTAVYYCASSSRIYDLNPSLTAYYDMDVWGQGTMVTVSS VL: QAVLTQPSSVSTPPGQKVTISCSGSSSNTGNNYVSWYQQLSGTAPKLLIYDNNKRPSGIPDRFSGSKSGTSATLGITGLQTGDEADYYCGTWDSSLSAWVFGGGTKLTVL | 0.33
1126H5 human IgG4 (antibody, V domains shown) VH: EVQLVQSGAEVKKPGSSVKVSCKASGGTFSTYGISWVRQAPGQGLEWIGGIIPIFDAGNSAQSFQGRVTITADESTSTAHMEVSSLRSEDTAVYYCASSSRIYDHHIQKGGYYDMDVWGQGTMVTVSS VL: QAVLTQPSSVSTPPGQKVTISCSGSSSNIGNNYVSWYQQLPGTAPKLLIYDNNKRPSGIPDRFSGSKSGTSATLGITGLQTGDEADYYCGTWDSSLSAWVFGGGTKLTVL | 0.38

The record that follows has no IC50, FLIPR calcium mobilisation shown yet.
Q. Which value of IC50, FLIPR calcium mobilisation has been reported for G1230H7 human IgG4 (antibody, V domains shown) VH: QVQLVQSGAEVKKPGSSVKVSCKASGGTFSTYGISWVRQAPGQGLEWMGGIIPIFDTGNSAQSFQGRVTITADESTSTAYMELSSLRSEDTAVYYCARSSRIYDFNSALISYYDMDVWGQGTMVTVSS VL: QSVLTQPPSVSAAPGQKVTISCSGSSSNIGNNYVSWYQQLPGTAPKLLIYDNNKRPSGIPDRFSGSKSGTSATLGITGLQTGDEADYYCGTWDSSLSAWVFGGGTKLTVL in the records?
A. 0.31
